- Tested on: Acinetobacter baumannii
- assay.text: Antibacterial activity against Acinetobacter baumannii ATCC 19606 after 18 hrs by 2 fold serial dilution method
- Assay type: functional
- condition.info: ATCC 19606, 18 h
Numbered stars: 1 amine (or outer) side, 2 acyl side, 3 side chain; on linkers, the order of the positions; unused ones are H or OH. Bridge positions count the residues as written; N and C are the ends. Square brackets hold non-standard residues; d marks the D form. Peptide text beside a SMILES is read from it. * marks the point of attachment. ξ: configuration not given here. Benzoyl(4-Ph) = O=C(c1ccc(-c2ccccc2)cc1)*; Bip = N[C@@H](Cc1ccc(-c2ccccc2)cc1)C(=O)O; Phe(4-NH2) = Nc1ccc(C[C@H](N)C(=O)O)cc1; ξGly(octyl) = CCCCCCCCC(N)C(=O)O; X1 = c1ccc(-c2ccc(N*)cc2)cc1; NH(2-ClPh) = Clc1ccccc1N*; Octanoyl = CCCCCCCC(=O)*; Dab = NCC[C@H](N)C(=O)O; CO = O=C([*:1])[*:2]

compound | result.units | value.prefix | MIC
CCCCCCCC(=O)N[C@@H](CCN)C(=O)N[C@H](C(=O)N[C@@H](CCN)C(=O)N[C@H]1CCNC(=O)[C@H]([C@@H](C)O)NC(=O)[C@H](CCN)NC(=O)[C@H](CCNC(=O)[C@@H](N)CCCNC(=N)N)NC(=O)[C@H](CC(C)C)NC(=O)[C@@H](Cc2ccccc2)NC(=O)[C@H](CCN)NC1=O)[C@@H](C)O | µg/mL | = | 4
CCCCCCCC(=O)N[C@@H](CCN)C(=O)N[C@H](C(=O)N[C@@H](CCN)C(=O)N[C@H]1CCNC(=O)[C@H]([C@@H](C)O)NC(=O)[C@H](CCNC(=O)[C@@H](N)CCC(=O)O)NC(=O)[C@H](CCN)NC(=O)[C@H](CC(C)C)NC(=O)[C@@H](Cc2ccccc2)NC(=O)[C@H](CCN)NC1=O)[C@@H](C)O (Octanoyl-[Dab]T[Dab][Dab][Dab][dF]L[Dab][Dab](Glu)T; lactam 4-C) | µg/mL | = | 16
CCCCCCCC(=O)N[C@@H](CCN)C(=O)N[C@H](C(=O)N[C@@H](CCN)C(=O)N[C@H]1CCNC(=O)[C@H]([C@@H](C)O)NC(=O)[C@H](CCN)NC(=O)[C@H](CCN)NC(=O)[C@H](Cc2ccc(-c3ccccc3)cc2)NC(=O)[C@@H](Cc2ccccc2)NC(=O)[C@H](CCN)NC1=O)[C@@H](C)O (Octanoyl-[Dab]T[Dab][Dab][Dab][dF][Bip][Dab][Dab]T; lactam 4-C) | µg/mL | = | 1
CCCCCCCC(=O)N[C@@H](CCN)C(=O)N[C@H](C(=O)N[C@@H](CCN)C(=O)N[C@H]1CCNC(=O)[C@H]([C@@H](C)O)NC(=O)[C@H](CCN)NC(=O)[C@H](CCNC(=O)[C@@H](N)CCC(=O)O)NC(=O)[C@H](CC(C)C)NC(=O)[C@@H](Cc2ccccc2)NC(=O)[C@H](CCN)NC1=O)[C@@H](C)O (Octanoyl-[Dab]T[Dab][Dab][Dab][dF]L[Dab](Glu)[Dab]T; lactam 4-C) | µg/mL | = | 4
CCCCCCCCC1NC(=O)[C@H](CCN)NC(=O)[C@@H](NC(=O)[C@H](CCN)NC(=O)[C@@H](NC(=O)[C@H](CCN)NC(=O)CCCCCCC)[C@@H](C)O)CCNC(=O)[C@H]([C@@H](C)O)NC(=O)[C@H](CCN)NC(=O)[C@H](CCN)NC(=O)[C@H](CC(C)C)NC1=O (stereo partly specified) (Octanoyl-[Dab]T[Dab][Dab][Dab][ξGly(octyl)]L[Dab][Dab]T; lactam 4-C) | µg/mL | = | 1
CC(C)C[C@@H]1NC(=O)[C@@H](Cc2ccccc2)NC(=O)[C@H](CCN)NC(=O)[C@@H](NC(=O)[C@H](CCN)NC(=O)[C@@H](NC(=O)[C@H](CCN)NC(=O)c2ccc(-c3ccccc3)cc2)[C@@H](C)O)CCNC(=O)[C@H]([C@@H](C)O)NC(=O)[C@H](CCN)NC(=O)[C@H](CCN)NC1=O ({Benzoyl(4-Ph)}-[Dab]T[Dab][Dab][Dab][dF]L[Dab][Dab]T; lactam 4-C) | µg/mL | = | 0.5
CCCCCCCC(=O)N[C@@H](CCN)C(=O)N[C@H](C(=O)N[C@@H](CCN)C(=O)N[C@H]1CCNC(=O)[C@H]([C@@H](C)O)NC(=O)[C@H](CCN)NC(=O)[C@H](CCN)NC(=O)[C@H](CC(C)C)NC(=O)[C@@H](Cc2ccccc2)NC(=O)[C@H](Cc2ccc(N)cc2)NC1=O)[C@@H](C)O (Octanoyl-[Dab]T[Dab][Dab][Phe(4-NH2)][dF]L[Dab][Dab]T; lactam 4-C) | µg/mL | > | 32
CC(C)C[C@@H]1NC(=O)[C@@H](Cc2ccccc2)NC(=O)[C@H](CCN)NC(=O)[C@@H](NC(=O)[C@H](CCN)NC(=O)[C@@H](NC(=O)[C@H](CCN)NC(=O)Nc2ccc(-c3ccccc3)cc2)[C@@H](C)O)CCNC(=O)[C@H]([C@@H](C)O)NC(=O)[C@H](CCN)NC(=O)[C@H](CCN)NC1=O ({X1-CO}-[Dab]T[Dab][Dab][Dab][dF]L[Dab][Dab]T; lactam 4-C) | µg/mL | = | 1
CCCCCCCC(=O)N[C@@H](CCN)C(=O)N[C@H](C(=O)N[C@@H](CCN)C(=O)N[C@H]1CCNC(=O)[C@H]([C@@H](C)O)NC(=O)[C@H](CCN)NC(=O)[C@H](CCN)NC(=O)[C@H](CC(C)C)NC(=O)[C@@H](Cc2ccccc2)NC(=O)[C@H](CCCNC(=N)N)NC1=O)[C@@H](C)O (Octanoyl-[Dab]T[Dab][Dab]R[dF]L[Dab][Dab]T; lactam 4-C) | µg/mL | > | 32
CC(C)C[C@@H]1NC(=O)[C@@H](Cc2ccccc2)NC(=O)[C@H](CCN)NC(=O)[C@@H](NC(=O)[C@@H](CO)NC(=O)[C@@H](NC(=O)[C@H](CCN)NC(=O)Nc2ccccc2Cl)[C@@H](C)O)CCNC(=O)[C@H]([C@@H](C)O)NC(=O)[C@H](CCN)NC(=O)[C@H](CCN)NC1=O ({NH(2-ClPh)-CO}-[Dab]T[dS][Dab][Dab][dF]L[Dab][Dab]T; lactam 4-C) | µg/mL | > | 32
CCCCCCCC(=O)N[C@@H](CCN)C(=O)N[C@H](C(=O)NCC(=O)N[C@H]1CCNC(=O)[C@H]([C@@H](C)O)NC(=O)[C@H](CCN)NC(=O)[C@H](CCN)NC(=O)[C@H](CC(C)C)NC(=O)[C@@H](Cc2ccccc2)NC(=O)[C@H](CCN)NC1=O)[C@@H](C)O (Octanoyl-[Dab]TG[Dab][Dab][dF]L[Dab][Dab]T; lactam 4-C) | µg/mL | = | 1

Origin of values: ChEMBL document CHEMBL3774373
